Source: patent US6395771B1

# Test system: breast cancer cells (HBL100)
# Test: MTT cytotoxicity assay, breast cancer cells
# Format: cell-based
# Design: key: —: Not active; =PT: Activity equivalent to Paclitaxel; <PT: Activity less than Paclitaxel
# Conditions: 24 to 96 hours, potency over paclitaxel
Measure: Potency with respect to paclitaxel, HBL100

INSERT INTO results (molecule, endpoint_result) VALUES
  ('CC(=O)OC1C(=O)C2(C)C(O)CC3OCC3(OC(C)=O)C2C(OC(=O)c2ccccc2)C2(O)CC(OC(=O)C(OC(=O)c3cccc(C(F)(F)F)c3)C(NC(=O)c3ccccc3)c3ccccc3)C(C)=C1C2(C)C (centres unmarked) [AV-86B]', '<PT'),
  ('CC(=O)OC1C(=O)C2(C)C(O)CC3OCC3(OC(C)=O)C2C(OC(=O)c2ccccc2)C2(O)CC(OC(=O)C(OC(=O)CC(C)(C)C(=O)O)C(NC(=O)c3ccccc3)c3ccccc3)C(C)=C1C2(C)C (centres unmarked) [AV-82B]', '>170'),
  ('CC(=O)OC1C(=O)C2(C)C(O)CC3OCC3(OC(C)=O)C2C(OC(=O)c2ccccc2)C2(O)CC(OC(=O)C(OC(=O)CSc3ccccc3)C(NC(=O)c3ccccc3)c3ccccc3)C(C)=C1C2(C)C (centres unmarked) [AV-150S]', '—'),
  ('CC(=O)CC(=O)OC(C(=O)OC1CC2(O)C(OC(=O)c3ccccc3)C3C4(OC(C)=O)COC4CC(O)C3(C)C(=O)C(OC(C)=O)C(=C1C)C2(C)C)C(NC(=O)c1ccccc1)c1ccccc1 (centres unmarked) [AV-147A]', '—'),
  ('CC(=O)OC1C(=O)C2(C)C(O)CC3OCC3(OC(C)=O)C2C(OC(=O)c2ccccc2)C2(O)CC(OC(=O)C(OC(=O)c3cccc(F)c3F)C(NC(=O)c3ccccc3)c3ccccc3)C(C)=C1C2(C)C (centres unmarked) [AV-105S]', 3.8),
  ('CC(=O)OC1C(=O)C2(C)C(O)CC3OCC3(OC(C)=O)C2C(OC(=O)c2ccccc2)C2(O)CC(OC(=O)C(OC(=O)C(OC(C)=O)c3ccccc3)C(NC(=O)c3ccccc3)c3ccccc3)C(C)=C1C2(C)C (centres unmarked) [AV-125S]', '—'),
  ('CC(=O)OC(C)C(=O)OC1CC2OCC2(OC(C)=O)C2C(OC(=O)c3ccccc3)C3(O)CC(OC(=O)C(OC(=O)OCC(Cl)(Cl)Cl)C(NC(=O)c4ccccc4)c4ccccc4)C(C)=C(C(OC(C)=O)C(=O)C12C)C3(C)C (centres unmarked) [AV-126S]', '—'),
  ('CC(=O)OC1C(=O)C2(C)C(O)CC3OCC3(OC(C)=O)C2C(OC(=O)c2ccccc2)C2(O)CC(OC(=O)C(OC(=O)CNC(=O)CNC(=O)OC(C)(C)C)C(NC(=O)c3ccccc3)c3ccccc3)C(C)=C1C2(C)C (centres unmarked) [AV-4S]', 3.3);

* * *

# Test system: ovarian cancer cells (PA-1)
# Test: MTT cytotoxicity assay, ovarian cancer cells
# Format: cell-based
# Parameters: key: —: Not active; =PT: Activity equivalent to Paclitaxel; <PT: Activity less than Paclitaxel
# Conditions: PA-1 ovarian cancer cells, 24 to 96 hours, potency over paclitaxel
Measure: Potency with respect to paclitaxel, PA-1

INSERT INTO measurements (compound, endpoint_result) VALUES
  ('CC(=O)OC1C(=O)C2(C)C(O)CC3OCC3(OC(C)=O)C2C(OC(=O)c2ccccc2)C2(O)CC(OC(=O)C(OC(=O)CSc3ccccc3)C(NC(=O)c3ccccc3)c3ccccc3)C(C)=C1C2(C)C (stereo not drawn) [AV-150S]', '=PT'),
  ('CC(=O)OC1C(=O)C2(C)C(O)CC3OCC3(OC(C)=O)C2C(OC(=O)c2ccccc2)C2(O)CC(OC(=O)C(OC(=O)c3cccc(F)c3F)C(NC(=O)c3ccccc3)c3ccccc3)C(C)=C1C2(C)C (stereo not drawn) [AV-105S]', '—'),
  ('CC(=O)OC1C(=O)C2(C)C(O)CC3OCC3(OC(C)=O)C2C(OC(=O)c2ccccc2)C2(O)CC(OC(=O)C(OC(=O)CNC(=O)CNC(=O)OC(C)(C)C)C(NC(=O)c3ccccc3)c3ccccc3)C(C)=C1C2(C)C (stereo not drawn)', 9.5),
  ('CC(=O)OC(C)C(=O)OC1CC2OCC2(OC(C)=O)C2C(OC(=O)c3ccccc3)C3(O)CC(OC(=O)C(OC(=O)OCC(Cl)(Cl)Cl)C(NC(=O)c4ccccc4)c4ccccc4)C(C)=C(C(OC(C)=O)C(=O)C12C)C3(C)C (stereo not drawn) [AV-126S]', '=PT'),
  ('CC(=O)CC(=O)OC(C(=O)OC1CC2(O)C(OC(=O)c3ccccc3)C3C4(OC(C)=O)COC4CC(O)C3(C)C(=O)C(OC(C)=O)C(=C1C)C2(C)C)C(NC(=O)c1ccccc1)c1ccccc1 (stereo not drawn) [AV-147A]', '=PT'),
  ('CC(=O)OC1C(=O)C2(C)C(O)CC3OCC3(OC(C)=O)C2C(OC(=O)c2ccccc2)C2(O)CC(OC(=O)C(OC(=O)CC(C)(C)C(=O)O)C(NC(=O)c3ccccc3)c3ccccc3)C(C)=C1C2(C)C (stereo not drawn) [AV-82B]', '—'),
  ('CC(=O)OC1C(=O)C2(C)C(O)CC3OCC3(OC(C)=O)C2C(OC(=O)c2ccccc2)C2(O)CC(OC(=O)C(OC(=O)c3ccc(F)cc3F)C(NC(=O)c3ccccc3)c3ccccc3)C(C)=C1C2(C)C (stereo not drawn) [AV-103S]', '—'),
  ('CC(=O)OC1C(=O)C2(C)C(O)CC3OCC3(OC(C)=O)C2C(OC(=O)c2ccccc2)C2(O)CC(OC(=O)C(OC(=O)c3cccc(C(F)(F)F)c3)C(NC(=O)c3ccccc3)c3ccccc3)C(C)=C1C2(C)C (stereo not drawn) [AV-86B]', '—'),
  ('CC(=O)OC1C(=O)C2(C)C(O)CC3OCC3(OC(C)=O)C2C(OC(=O)c2ccccc2)C2(O)CC(OC(=O)C(OC(=O)C(OC(C)=O)c3ccccc3)C(NC(=O)c3ccccc3)c3ccccc3)C(C)=C1C2(C)C (stereo not drawn) [AV-125S]', '=PT');
